tested on: MS2 coat protein; assay: apparent Kd, MS2 coat protein; higher = weaker binding; RNA-MaP array; theophylline 2 mM where present; conditions: designed as: ON switch for theophylline; no ligand
reported metric: apparent Kd (µM)
State the answer as a number, implicitly in µM.

{"construct sequence": "ACGACGCAUAGUGAUACCAGUAGAACAUGAGGAUCACCCAUGUCUGUGGCGCACCACCUCUGCCCUUGGCAGCACUAUGCGUCAG", "output unit": "µM", "apparent Kd": 0.0134}
{"construct sequence": "UAACAUGAGGAUCACCCAUGUAUAGUCGAUACCAGCUCAAGGAAGAGCCCUUGGCAGCGACACUGCCAAGCAUGGGUCAUGGCAG", "output unit": "µM", "apparent Kd": 0.0211}
{"construct sequence": "AGUGUUAUAACUGAUACCAGACUCUCAUGUUUACAUGAGGAUCACCCAUGUUAUUUCUUUGUCCCUUGGCAGCAGAAUUAACACA", "output unit": "µM", "apparent Kd": 0.208}

Below: the item to evaluate.
Ask: Please indicate recorded apparent Kd of AUACAUGAGGAUCACCCAUGUAUAGUCGAUACCAGCUCAAGGAAGAGCCCUUGGCAGCGACACUGGUAUCCAUGGGUGAUACCAG measured with MS2 coat protein.
Result: 0.0223

---

The following sequences are listed with their measured apparent Kd values.
test system: MS2 coat protein; test: apparent Kd, MS2 coat protein; higher = weaker binding; RNA-MaP array; tryptophan 2.4 mM where present; settings: ligand present: tryptophan; designed as: ON switch for tryptophan
State the answer as a number, implicitly in µM.

Ask: # return recorded apparent Kd for entry GCAUCCUAGUCGGCCGCCACUGGUAUGAACACCUUCACCCGUGUGCACAUGAGGAUCACCCAUGUUAGGACCGGGACUAGGAUGC
Result: 0.0093

Ask: # return recorded apparent Kd for entry AGCCACUCGAACAUGGGUGACGAGUGGCAACGAGGACCGGUACGGCCGCCACUCGAAUAAACAUGAGGAUCACCCAUGUACAAAU
Result: 0.214

Ask: # return recorded apparent Kd for entry CGCACAUGAGGAUCACCCAUGUGAGGGCGUCGAGGACCGGUACGGCCGCCACUCGCAGGACAUGAGGAUCACCCAUGUGCCGCCG
Result: 0.0572

Ask: # return recorded apparent Kd for entry AGAAUAUAGUCGGCCGCCACUCUACAUACAUGAGGAUCACCCAUGUUUACAUAGUGAAUAUACAUGAGGACCGGGACAUAGGCAU
Result: 0.0134

Ask: # return recorded apparent Kd for entry UAAUGCAGGUCGGCCGCCACUACACACAUGAGGAUCACCCAUGUAGUUACUGGGUGAAGUGGCAGUAGGACCGGGACCUGCAUAC
Result: 0.47

---

tested on: MS2 coat protein; assay: apparent Kd, MS2 coat protein; higher = weaker binding; RNA-MaP array; theophylline 2 mM where present; conditions: ligand present: theophylline; designed as: OFF switch for theophylline
Class boundaries, taken from values of apparent Kd, are as follows: 0 = under 60 nM, 1 = from 60 nM up to 100 nM, 2 = 100 nM and over

Before answering, review these 8 worked examples.
{"construct sequence": "CAACAAGUAACUGAUACCAGUGUACUGACAUGAGGAUCACCCAUGUUGGGUUUUGUUGUACACCCUUGGCAGCAGAAUCUUGUUG", "cat": 1}
{"construct sequence": "CGGUUUGUGAUGGAUACCAGCAGUGUGGCUGUUUAUCCUGACAUGAGGAUCACCCAUGUGUGCCCUUGGCAGCUGUUGUGGGCUG", "cat": 2}
{"construct sequence": "AGCUCAUAGAGUGAUACCAGACUACAUGAGGAUCACCCAUGUUACUUUUAAAUAUCAUUUGUCCCUUGGCAGCACAUGAAGAGCA", "cat": 0}
{"construct sequence": "AAACUGGGUGUAAAAUAAAUAAUCACUGAUACCAGACUAUUUUAUGUCCCUUGGCAGCAGAAACAUGAGGAUCACCCAUGUAAUA", "cat": 0}
{"construct sequence": "AUUAUCAUGGUCAUUUAUAUUUCGUCAGAUACCAGACUAGAUAUAGUCCCUUGGCAGCUGUUACAUGAGGAUCACCCAUGUUAUU", "cat": 0}
{"construct sequence": "GAUGAACUAUAUGAUACCAGACAACAUGAGGAUCACCCAUGUGAAUGUCGUCCUCUGCCUGUCCCUUGGCAGCGUAUAGUUUAUC", "cat": 2}
{"construct sequence": "UACAUGAGGAUCACCCAUGUAUAGAGGGAUACCAGUGUCAGUGAGCACCCUUGGCAGCCCGCGAACAAUGGGUGCGCUAUAUAGU", "cat": 1}
{"construct sequence": "GAUGAACUAUAUGAUACCAGACAACAUGAGGAUCACCCAUGUGUAUGUCGUCCUCUGCCUGUCCCUUGGCAGCGUAUAGUUUAUC", "cat": 2}

Consider the record given below.
Ask: Field: class (apparent Kd) — entry: UCUUGGUCCGCAAGGACCUUGAGUUGCGAUACCAGCACGGUAACGUGCCCUUGGCAGCGCACAUGAGGAUCACCCAUGUGGUGUU
Result: 2
